Let's look at some compounds and their measured inhibition at 500 µM.
# measured.target: CK2α (Homo sapiens)
# Sequence (P68400 whole entry): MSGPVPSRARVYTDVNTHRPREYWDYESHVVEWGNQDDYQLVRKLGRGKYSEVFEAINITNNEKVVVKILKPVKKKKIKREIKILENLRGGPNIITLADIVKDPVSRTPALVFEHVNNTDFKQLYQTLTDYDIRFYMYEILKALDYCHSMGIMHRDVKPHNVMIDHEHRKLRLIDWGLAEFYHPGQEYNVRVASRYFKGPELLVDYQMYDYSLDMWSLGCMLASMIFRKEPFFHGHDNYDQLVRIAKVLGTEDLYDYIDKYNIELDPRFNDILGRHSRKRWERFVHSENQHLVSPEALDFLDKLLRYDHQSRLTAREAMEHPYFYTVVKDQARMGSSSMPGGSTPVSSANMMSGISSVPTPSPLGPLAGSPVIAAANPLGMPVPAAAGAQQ
# assay.overview: biochemical
# test.parameters: read-out: % inhibition at 500 μM

compound: Brc1ccc2[nH]ncc2c1 [Compound 7]
inhibition at 500 µM: 66%
//
compound: N#CCc1c[nH]c2ccc(Br)cc12 [Compound 8]
inhibition at 500 µM: 87%
//
compound: Brc1ccc2[nH]ccc2c1 [Compound 3]
inhibition at 500 µM: 22%

In the following, a different compound is considered.
Input: Quick one: inhibition at 500 µM for Clc1cc2[nH]ccc2cc1Br [Compound 6] ?
Output: 93%

Origin of the recorded values: paper PMC9667777
